Hey, just so you know, these numbers are from paper PMC11062899.

test protocol: Metabolic stability in rat liver microsomes (RLMs)
cond: rat, microsomes, Half Life (min) R2, RLM metabolic stability; replicate R2; 0-60 min
reported metric: half-life (min)
Answers are plain numbers, in min.

Example cases with answers are listed next.
O=C1NCCSCc2cccc(n2)CSCCC(=O)N2CCC[C@H]2C(=O)N2CCN(C(=O)c3ccc(Cl)s3)CC12 (stereo partly shown)	19.7
O=C1CCSCc2cccc(n2)CSCCNC(=O)C2CN(C(=O)c3ccc(Cl)s3)CCN2C(=O)[C@H](CO)N1 (stereo partly shown)	18
NC(=O)NCCC[C@@H]1NC(=O)[C@@H](NC(=O)c2ccc(Cl)s2)CNC(=O)CCSCc2cccc(n2)CSCCNC1=O	57.7

// next item, half-life requested
Look up and report measured half-life for this entry: O=C(N[C@H]1CSCc2cccc(n2)CSCCNC(=O)[C@H](Cc2ccccn2)NC(=O)C2(CCCC2)NC1=O)c1ccc(Cl)s1
14.4

----------
test protocol: Metabolic stability in rat liver microsomes (RLMs)
cond: rat, microsomes, Half Life (min) in RLMs (single replicates R1–R3), Fig. 5e source data
reported metric: half-life (min)
Numbers only, in min.

Using known records, supply half-life for O=C1C[C@H]2CCCN2C(=O)[C@H](Cc2ccccc2)NC(=O)[C@@H](NC(=O)c2ccc(Cl)s2)CCC=CCCCCN1 [peptide 43]
17.3

----------
test protocol: Metabolic stability in rat liver microsomes (RLMs)
cond: rat, CL (ul/min/mg protein), R1, RLM CL, replicate R1, unrounded
reported metric: microsomal CLint (µL/min/mg)
One number for each entry, in µL/min/mg.

Completed entries (count: 4):
O=C1C[C@H]2CCCN2C(=O)[C@H](Cc2ccccc2)NC(=O)[C@@H](NC(=O)c2ccc(Cl)s2)CCSC/C=C/CSCCN1	69.7
O=C1C[C@H]2CCCN2C(=O)[C@H](Cc2ccccc2)NC(=O)[C@@H](NC(=O)c2ccc(Cl)s2)CSCc2cccc(n2)CSCCN1	53.6
O=C1C[C@H]2CCCN2C(=O)[C@H](Cc2ccccc2)NC(=O)[C@@H](NC(=O)c2ccc(Cl)s2)CCCSCc2cccc(n2)CSCCN1	79
O=C1C[C@H]2CCCN2C(=O)[C@H](Cc2ccccc2)NC(=O)[C@@H](NC(=O)c2ccc(Cl)s2)CCSCc2cccc(n2)CSCCN1	52.1

Turning to the following compound.
Look up and report measured microsomal CLint for this entry: O=C1C[C@H]2CCCN2C(=O)[C@H](Cc2ccccc2)NC(=O)[C@@H](NC(=O)c2ccc(Cl)s2)CSC/C=C/CSCCN1 [peptide 32]
278

----------
Test system: porcine pancreatin
test protocol: Peptide stability in simulated intestinal fluid (SIF)
Type: in vitro ADME
cond: after 8 h vs 0 h (TIC); average of R1-R3
Each record gets a class by SIF stability, Residual peptide Average: class 0 (below 80), class 1 (80 to below 90), class 2 (90 or more)

O=C1CCSCc2ccc(cc2)CSCCNC(=O)[C@H](CNC(=O)c2ccc(Cl)s2)NC(=O)[C@H](Cc2ccccn2)N1	class 0
O=C1C[C@H]2CCCN2C(=O)[C@H](Cc2ccccc2)NC(=O)[C@@H](NC(=O)c2ccc(Cl)s2)CSC/C=C/CSCCN1 [peptide 32]	class 1
O=C1C[C@H]2CCCN2C(=O)[C@H](Cc2ccccc2)NC(=O)[C@@H](NC(=O)c2ccc(Cl)s2)CCCSC/C=C/CSCCN1	class 0
O=C1CCSC/C=C/CSCCNC(=O)[C@H](CNC(=O)c2ccc(Cl)s2)NC(=O)[C@H](Cc2ccccn2)N1	class 2
O=C1C[C@H]2CCCN2C(=O)[C@H](Cc2ccccc2)NC(=O)[C@@H](NC(=O)c2ccc(Cl)s2)CSCc2cccc(n2)CSCCN1	class 0
O=C1CSCCC[C@H](NC(=O)c2ccc(Cl)s2)C(=O)N[C@@H](Cc2ccccc2)C(=O)N2CCC[C@@H]2CC(=O)NCCSC1	class 1
CN1CCC(=O)NCCSCCS(=O)(=O)CCSC[C@H](NC(=O)c2ccc(Cl)s2)C(=O)N[C@@H](Cc2ccccc2)C1=O	class 1
O=C(N[C@H]1CSCc2cccc(n2)CSCCNC(=O)[C@H](Cc2ccccn2)NC(=O)C2(CCCC2)NC1=O)c1ccc(Cl)s1	class 2

Now turn to the next compound.
Band assignment needed for O=C1CCSCc2cccc(n2)CSCCNC(=O)C2CN(C(=O)c3ccc(Cl)s3)CCN2C(=O)[C@H](CO)N1 (stereo partly shown) please.
class 2

----------
test protocol: Metabolic stability in rat liver microsomes (RLMs)
cond: rat, microsomes, Metabolic stability: RLM CL R2, summary table, rounded; replicate R2
Exercise: for every item that follows, state its recorded microsomal CLint.
Numbers only, in µL/min/mg.

Consider the worked cases shown below.
O=C1C[C@H]2CCCN2C(=O)[C@H](Cc2ccccn2)NC(=O)[C@@H](NC(=O)c2ccc(Cl)s2)CSCCS(=O)(=O)CCSCCN1	68.8
O=C1CC2CCN(CC2)C(=O)[C@H](Cc2ccccc2)NC(=O)[C@@H](NC(=O)c2ccc(Cl)s2)CSCCS(=O)(=O)CCSCCN1	117
CN1CCC(=O)NCCSCCS(=O)(=O)CCSC[C@H](NC(=O)c2ccc(Cl)s2)C(=O)N[C@@H](Cc2ccccc2)C1=O	132

Next:
# return recorded microsomal CLint for entry O=C1C[C@H]2CCCN2C(=O)[C@H](Cc2ccccc2)NC(=O)[C@@H](NC(=O)c2ccc(Cl)s2)CSCCS(=O)(=O)CCSCCN1 [peptide 11]
68.2

----------
test protocol: in vivo
cond: male, Wistar Han, rat, po, 10 mg/kg, Concentration in blood samples
reported metric: level at time molar at 8 h (nM)
One number for each entry, in nM.

Note level at time molar at 8 h for the compound shown: O=C1C[C@H]2CCCN2C(=O)[C@H](Cc2ccccc2)NC(=O)[C@@H](NC(=O)c2ccc(Cl)cc2)CCC=CCCCCN1 (mixture of isomers) [peptide 46]
17.1

----------
Assignment: determine reported half-life for the given compounds.
test protocol: Metabolic stability in rat liver microsomes (RLMs)
cond: rat, microsomes, Metabolic stability: Half life T1/2 (min), RLMs; mean and SD, three measurements
Numbers only, in min.

The cases that follow already have their half-life on record.
O=C1NCCSCc2cccc(n2)CSC[C@H](NC(=O)c2ccc(Cl)s2)C(=O)N[C@@H](CO)C(=O)NCc2ccc1cc2	14.8
O=C1NCCSCc2cccc(n2)CSC[C@H](NC(=O)c2ccc(Cl)s2)C(=O)N[C@@H](CO)C(=O)NCc2cccc1c2	25
O=C1CSCCC[C@H](NC(=O)c2ccc(Cl)s2)C(=O)N[C@@H](Cc2ccccc2)C(=O)N2CCC[C@@H]2CC(=O)NCCSC1	14.7
Cn1nccc1C(=O)N1CCC2(CC1)NC(=O)[C@H](CC1CCCCC1)NC(=O)CCSCc1cccc(n1)CSCCNC2=O	22
O=C1CCSCc2cccc(n2)CSCCNC(=O)C2CN(C(=O)c3ccc(Cl)s3)CCN2C(=O)[C@H](CO)N1 (stereo partly drawn)	18.9

Determine from records and report half-life for O=C1C[C@H]2CCCN2C(=O)[C@H](Cc2ccccc2)NC(=O)[C@@H](NC(=O)c2ccc(Cl)s2)CSCCS(=O)(=O)CCSCCN1 [peptide 11]
17.3

----------
test protocol: Metabolic stability in rat liver microsomes (RLMs)
cond: rat, microsomes, Half Life (min) R3, RLM metabolic stability; replicate R3; 0-60 min
reported metric: half-life (min)
One number for each entry, in min.

O=C1CCSCc2ccc(cc2)CSCCNC(=O)[C@H](CNC(=O)c2ccc(Cl)s2)NC(=O)[C@H](Cc2ccccn2)N1 [compound 21]	16.3

Dear colleague, could you send me half-life for each of the items below? Thanks.
1. NC(=O)NCCC[C@@H]1NC(=O)[C@@H](NC(=O)c2ccc(Cl)s2)CNC(=O)CCSCc2cccc(n2)CSCCNC1=O [compound 20]
2. O=C1CC2CCN(CC2)C(=O)[C@H](Cc2ccccc2)NC(=O)[C@@H](NC(=O)c2ccc(Cl)s2)CSCc2cccc(n2)CSCCN1 [compound 15]
3. O=C1CCSCc2cccc(n2)CSCCNC(=O)[C@H](CO)NC(=O)[C@@H](NC(=O)c2ccc(Cl)s2)CN1 [compound 17]
4. C[C@@H]1NC(=O)[C@@H](NC(=O)c2ccc(Cl)s2)CNC(=O)CCSCc2cccc(n2)CSCCNC1=O [compound 18]

53
16.9
12.7
14.5

Need half-life for each of these molecules.
1. O=C1NCCSCc2cccc(n2)CSC[C@H](NC(=O)c2ccc(Cl)s2)C(=O)N[C@@H](CO)C(=O)NCc2cccc1c2 [compound 27]
2. C[C@@H]1NC(=O)[C@@H](NC(=O)c2ccc(Cl)s2)CSCc2cccc(n2)CSCCNC(=O)[C@H]2CCCN(C2)C1=O [compound 30]

23
18.4

----------
test protocol: Metabolic stability in rat liver microsomes (RLMs)
cond: rat, microsomes, CL (ul/min/mg protein) R2, RLM CL; replicate R2
Task for the reader: assign each of the following compounds its reported microsomal CLint.
Give bare numbers, in µL/min/mg.

Worked cases, microsomal CLint given:
O=C(N[C@H]1CSCc2cccc(n2)CSCCNC(=O)[C@H](Cc2ccccn2)NC(=O)C2(CCCC2)NC1=O)c1ccc(Cl)s1	96.1
O=C1CCSCc2ccc(cc2)CSCCNC(=O)[C@H](CNC(=O)c2ccc(Cl)s2)NC(=O)[C@H](Cc2ccccn2)N1	60.2

Lab note: next compound to report on.
Give the reported value of microsomal CLint for this record: CN1CCC(=O)NCCSCCS(=O)(=O)CCSC[C@H](NC(=O)c2ccc(Cl)s2)C(=O)N[C@@H](Cc2ccccc2)C1=O
132
